Hey, just so you know, these numbers are from the RNAGym collection of RNA variant scans (doi:10.7554/elife.80360).

# self-cleavage annotations
B1: HDV Ribozyme (parent)
chain: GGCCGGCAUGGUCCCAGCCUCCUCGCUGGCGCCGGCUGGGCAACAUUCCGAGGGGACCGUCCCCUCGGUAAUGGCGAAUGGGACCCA

Variants of: B1
Measurement description: self-cleavage, relative activity (ratio to wild type); higher = more cleavage; co-transcriptional
Field format: numeric only.

Take a look at these entries with their results.
[[record]]
changes = "G40C A77U"
measured_result = 0.128

[[record]]
changes = "G6U G74C"
measured_result = 0.0449

[[record]]
changes = "C57U C85A"
measured_result = 0.698


Recorded result, C21U C63A , self-cleavage: 0.234

Recorded result, G40A A43G , self-cleavage: 0.623

Recorded result, U20C U69C , self-cleavage: 0.208

Recorded result, G6A G38U , self-cleavage: 0.0923

Recorded result, G17C G38U , self-cleavage: 0.0898

Recorded result, C49G G53U , self-cleavage: 0.723

Recorded result, U65A C86U , self-cleavage: 0.937

Recorded result, C22A G52A , self-cleavage: 0.292

Recorded result, U37C G68U , self-cleavage: 1.05

Recorded result, G1A G35U , self-cleavage: 0.158

Recorded result, G29U G76C , self-cleavage: 0.12

Recorded result, G31C A83G , self-cleavage: 0.219

Recorded result, C33G A56U , self-cleavage: 0.228

Recorded result, C44U C57G , self-cleavage: 0.612

Recorded result, C19G G73U , self-cleavage: 0.0545

Recorded result, A8U C21U , self-cleavage: 0.147

Recorded result, G6A G74C , self-cleavage: 0.155

Recorded result, G38U U46C , self-cleavage: 0.135

Recorded result, U9A G35A , self-cleavage: 0.665

Recorded result, G35U C57A , self-cleavage: 0.517

Recorded result, C22A G67A , self-cleavage: 0.185

Recorded result, G11A G38C , self-cleavage: 0.0911

Recorded result, C19A U23A , self-cleavage: 0.0302

Recorded result, A43U A51C , self-cleavage: 0.525
